target: UniProtKB P28335; experiment: Inhibitory activity against human 5-HT2C receptor at 1 uM concentration
Sequence (P28335 whole entry): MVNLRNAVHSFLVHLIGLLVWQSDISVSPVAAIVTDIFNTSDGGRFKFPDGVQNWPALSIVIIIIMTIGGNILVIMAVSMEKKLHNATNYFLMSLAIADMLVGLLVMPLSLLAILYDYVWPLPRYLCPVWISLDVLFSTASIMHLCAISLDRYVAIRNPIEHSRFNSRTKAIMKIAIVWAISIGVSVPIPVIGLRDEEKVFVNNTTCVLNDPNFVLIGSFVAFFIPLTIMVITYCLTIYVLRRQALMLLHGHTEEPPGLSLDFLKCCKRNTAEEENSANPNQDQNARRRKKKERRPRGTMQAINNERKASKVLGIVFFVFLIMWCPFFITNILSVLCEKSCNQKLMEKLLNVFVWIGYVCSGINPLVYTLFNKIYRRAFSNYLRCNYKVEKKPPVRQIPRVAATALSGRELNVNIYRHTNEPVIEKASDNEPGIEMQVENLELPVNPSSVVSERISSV
OBSERVED PROPERTY: inhibition (%)

The examples below pair each entry with its known result.
[
  {
    "ENTRY SMILES": "Cc1cc(NC(C)C)nc2ccc(NC(=O)COc3ccc(C(F)(F)F)cc3)cc12",
    "inhibition / %": 18
  },
  {
    "ENTRY SMILES": "Cc1cc(N2CCN(C)CC2)nc2ccc(NC(=O)COc3ccc(C(F)(F)F)cc3)cc12",
    "inhibition / %": 39
  }
]

[I] Cc1cc(N2CCOCC2)nc2ccc(NC(=O)COc3ccc(C(F)(F)F)cc3)cc12
[II] Cc1cc(N2CCCC2)nc2ccc(NC(=O)COc3ccc(C(F)(F)F)cc3)cc12
// query Consider I and II . Which of these has its inhibition at a higher number? Please identify the chosen entry by its label.
// result I
